The measured values listed here are drawn from ChEMBL document CHEMBL3352809.

- system_name: GABA-B receptor (Homo sapiens, UniProt O75899+Q9UBS5)
- Sequence (Q9UBS5 whole entry): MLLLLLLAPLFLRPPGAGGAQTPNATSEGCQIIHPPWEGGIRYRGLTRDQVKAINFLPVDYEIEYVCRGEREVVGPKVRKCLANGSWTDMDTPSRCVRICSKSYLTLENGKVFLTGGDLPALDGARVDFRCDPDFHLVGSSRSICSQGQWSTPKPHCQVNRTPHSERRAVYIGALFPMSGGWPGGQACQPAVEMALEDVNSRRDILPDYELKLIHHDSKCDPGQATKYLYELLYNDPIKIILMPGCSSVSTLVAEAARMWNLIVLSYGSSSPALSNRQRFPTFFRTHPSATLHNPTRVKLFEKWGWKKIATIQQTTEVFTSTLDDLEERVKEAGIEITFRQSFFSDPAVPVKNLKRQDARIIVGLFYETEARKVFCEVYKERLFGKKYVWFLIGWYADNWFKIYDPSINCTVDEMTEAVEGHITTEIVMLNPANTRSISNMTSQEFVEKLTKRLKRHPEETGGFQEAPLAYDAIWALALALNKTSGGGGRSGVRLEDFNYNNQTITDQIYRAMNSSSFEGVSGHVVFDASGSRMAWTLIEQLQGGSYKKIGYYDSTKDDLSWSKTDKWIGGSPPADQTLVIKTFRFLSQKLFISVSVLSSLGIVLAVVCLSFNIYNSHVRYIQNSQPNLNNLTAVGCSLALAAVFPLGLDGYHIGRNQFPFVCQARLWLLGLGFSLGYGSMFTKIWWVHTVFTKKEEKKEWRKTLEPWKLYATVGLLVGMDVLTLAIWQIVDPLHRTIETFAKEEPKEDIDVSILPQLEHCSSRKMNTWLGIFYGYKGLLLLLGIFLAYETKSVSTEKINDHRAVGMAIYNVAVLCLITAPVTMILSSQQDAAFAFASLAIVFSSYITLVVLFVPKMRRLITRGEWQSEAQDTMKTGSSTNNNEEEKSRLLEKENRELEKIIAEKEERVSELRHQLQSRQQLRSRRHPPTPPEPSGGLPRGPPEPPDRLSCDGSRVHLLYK
- Sequence (O75899 whole entry): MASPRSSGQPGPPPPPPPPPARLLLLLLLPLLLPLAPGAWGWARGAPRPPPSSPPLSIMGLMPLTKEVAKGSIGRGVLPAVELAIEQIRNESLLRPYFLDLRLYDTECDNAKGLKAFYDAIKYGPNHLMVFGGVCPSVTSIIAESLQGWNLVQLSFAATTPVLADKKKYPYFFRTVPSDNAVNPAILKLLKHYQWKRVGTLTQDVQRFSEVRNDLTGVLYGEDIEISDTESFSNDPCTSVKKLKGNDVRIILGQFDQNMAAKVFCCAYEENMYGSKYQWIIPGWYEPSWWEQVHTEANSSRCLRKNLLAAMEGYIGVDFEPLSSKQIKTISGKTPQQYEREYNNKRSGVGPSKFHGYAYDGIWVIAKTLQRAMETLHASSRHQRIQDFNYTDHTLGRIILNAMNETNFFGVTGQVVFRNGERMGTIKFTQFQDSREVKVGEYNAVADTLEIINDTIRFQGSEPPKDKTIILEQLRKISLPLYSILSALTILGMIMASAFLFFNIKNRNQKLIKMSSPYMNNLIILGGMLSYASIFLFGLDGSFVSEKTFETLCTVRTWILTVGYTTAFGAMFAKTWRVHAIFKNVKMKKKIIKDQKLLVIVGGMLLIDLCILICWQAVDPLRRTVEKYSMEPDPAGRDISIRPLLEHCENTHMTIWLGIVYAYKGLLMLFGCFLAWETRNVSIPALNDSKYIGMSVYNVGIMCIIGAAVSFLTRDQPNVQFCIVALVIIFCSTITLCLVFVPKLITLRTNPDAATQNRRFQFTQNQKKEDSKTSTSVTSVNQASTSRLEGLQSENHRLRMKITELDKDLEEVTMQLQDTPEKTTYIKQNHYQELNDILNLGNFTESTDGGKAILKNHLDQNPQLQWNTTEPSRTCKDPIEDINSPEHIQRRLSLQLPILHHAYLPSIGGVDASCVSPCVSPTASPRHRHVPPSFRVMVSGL
- protocol_details: Negative allosteric modulation of recombinant HA-tagged GB1 subunit/Flag-tagged GB2 subunit receptor (unknown origin) expressed in HEK293 cells co-expressing Gqi9 G-protein assessed as inhibition of GABA-induced IP production by liquid scintillation counting
pIC50: −log10 of the molar value.

>  <mol_smiles>
CC(C)(C)c1cc(/C=C/C(=O)C(=O)O)cc(C(C)(C)C)c1O

>  <system_name>
GABA-B receptor (Homo sapiens, UniProt O75899+Q9UBS5)

>  <pIC50>
4.42

$$$$
>  <mol_smiles>
CC(C)(C)c1cc(/C=C/C=O)cc(C(C)(C)C)c1O

>  <system_name>
GABA-B receptor (Homo sapiens, UniProt O75899+Q9UBS5)

>  <pIC50>
4.67

$$$$
